This section presents compounds with their documented Bliss excess values.
system: KMRC-1 (Kidney Carcinoma); assay: Bliss excess, mean over the matrix (fraction); higher = more synergy;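 note: after 72 h of two-drug dosing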

Compound: CN(CCO)CC[C@H](CSc1ccccc1)Nc1ccc(S(=O)(=O)NC(=O)c2ccc(N3CCC([C@@H](O)c4ccccc4-c4ccc(Cl)cc4)CC3)cc2)cc1S(=O)(=O)C(F)(F)F [AZD4320] + CC(=O)O[C@H]1C(=O)[C@@]2(C)[C@H]([C@H](OC(=O)c3ccccc3)[C@]3(O)C[C@H](OC(=O)[C@H](O)[C@@H](NC(=O)c4ccccc4)c4ccccc4)C(C)=C1C3(C)C)[C@]1(OC(C)=O)CO[C@@H]1C[C@@H]2O [Paclitaxel] (first compound max 1 µM, 7x7, partner max 3 µM)
Bliss excess: 0.0095
//
Compound: Cc1c2c(nn1C)CSCc1cc(n(C)n1)CSc1cc(c3ccccc3c1)OCCCc1c(C(=O)O)n(C)c3c-2c(Cl)ccc13 [AZD5991] + CCN(CCO)CCCOc1ccc2c(Nc3cc(CC(=O)Nc4cccc(F)c4)[nH]n3)ncnc2c1 [AZD2811] (first compound max 1 µM, 7x7, partner max 1 µM)
Bliss excess: 0.0096
//
Compound: COc1nnc2ccc(N3CCC(c4ccc(OCCN5CCN(C)C(=O)[C@H]5C)cc4)CC3)nn12 [AZD5153] + Cn1cnc2c(F)c(Nc3ccc(Br)cc3Cl)c(C(=O)NOCCO)cc21 [Selumetinib] (first compound max 1 µM, 7x7, partner max 10 µM)
Bliss excess: -0.0365
//
Compound: COc1nnc2ccc(N3CCC(c4ccc(OCCN5CCN(C)C(=O)[C@H]5C)cc4)CC3)nn12 [AZD5153] + CCN(CCO)CCCOc1ccc2c(Nc3cc(CC(=O)Nc4cccc(F)c4)[nH]n3)ncnc2c1 [AZD2811] (first compound max 1 µM, 7x7, partner max 1 µM)
Bliss excess: -0.0437

----------
Entries and their combination Emax values follow.
test system: MDA-MB-453 (Breast Carcinoma); assay: combination Emax (second highest fraction inhibited in the dose matrix, 72 h); higher = more inhibition; extreme values may be limits of the assay
Measure: combination Emax

Compound: COc1cccc(OCCCN)c1-c1cc(Nc2cnc(C#N)cn2)n[nH]1 [Prexasertib] + C[C@@H]1COCCN1C2=NC(=NC(=C2)C3(CC3)[S@](=N)(=O)C)C4=C5C=CNC5=NC=C4 [AZD6738] (first compound max 1 µM, 7x7, partner max 10 µM)
Value reported: 0.888
//
Compound: COc1nnc2ccc(N3CCC(c4ccc(OCCN5CCN(C)C(=O)[C@H]5C)cc4)CC3)nn12 [AZD5153] + CC1(C)CCC(CN2CCN(c3ccc(C(=O)NS(=O)(=O)c4ccc(NCC5CCOCC5)c([N+](=O)[O-])c4)c(Oc4cnc5[nH]ccc5c4)c3)CC2)=C(c2ccc(Cl)cc2)C1 [Venetoclax] (first compound max 1 µM, 7x7, partner max 1 µM)
Value reported: 0.649
//
Compound: C[C@@H](Nc1cc(F)cc(F)c1)c1cc(C(=O)N(C)C)cc2c(=O)cc(N3CCOCC3)oc12 [AZD8186] + CC(=O)c1c(C)c2cnc(Nc3ccc(N4CCNCC4)cn3)nc2n(C2CCCC2)c1=O [Palbociclib] (first compound max 10 µM, 7x7, partner max 10 µM)
Value reported: 0.578
//
Compound: COc1cccc(OCCCN)c1-c1cc(Nc2cnc(C#N)cn2)n[nH]1 [Prexasertib] + C=CCn1c(=O)c2cnc(Nc3ccc(N4CCN(C)CC4)cc3)nc2n1-c1cccc(C(C)(C)O)n1 [AZD1775] (first compound max 1 µM, partner max 1 µM)
Value reported: 0.909
